Value source: the supplement of paper PMC7877785

experiment: self-splicing fitness, log relative to wild type (ln ratio); higher = more splicing; Tetrahymena group I intron in knt gene, E. coli kanamycin selection, DiMSum; sequences stand for … in CUCUCU…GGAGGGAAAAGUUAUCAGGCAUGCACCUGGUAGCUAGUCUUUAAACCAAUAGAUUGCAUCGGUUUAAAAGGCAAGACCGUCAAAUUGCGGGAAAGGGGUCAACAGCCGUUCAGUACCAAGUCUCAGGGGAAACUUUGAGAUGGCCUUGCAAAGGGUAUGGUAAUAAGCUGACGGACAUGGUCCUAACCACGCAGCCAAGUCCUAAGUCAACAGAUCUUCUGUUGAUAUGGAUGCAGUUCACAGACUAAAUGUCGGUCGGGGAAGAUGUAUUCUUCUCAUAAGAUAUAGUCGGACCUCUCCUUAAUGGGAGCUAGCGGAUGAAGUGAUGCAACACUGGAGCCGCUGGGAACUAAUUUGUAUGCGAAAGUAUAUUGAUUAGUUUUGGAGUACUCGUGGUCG; conditions: 30 °C;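 note: selection with 25 µg/mL kanamycin versus none on LB agar overnight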
Category scheme (self-splicing fitness (ln)): low interval: < -3; middle interval: ≥ -3 and < -2; high interval: ≥ -2

{"Residue sequence": "GGGCAGCAAUAUUACGGGAA", "Cat": "middle interval"}
{"Residue sequence": "CGUCAGCAAUAUUACGAAUC", "Cat": "low interval"}
{"Residue sequence": "GGCUAGCAAUAUUACGCUGC", "Cat": "low interval"}
{"Residue sequence": "UCCCAGCAAUAUUACGUAUG", "Cat": "low interval"}
{"Residue sequence": "GACCAGCAAUAUUACGAGUA", "Cat": "high interval"}
{"Residue sequence": "CGCAAGCAAUAUUACGAGAG", "Cat": "middle interval"}
{"Residue sequence": "UGUUAGCAAUAUUACGACUC", "Cat": "high interval"}
{"Residue sequence": "AUGGAGCAAUAUUACGGGGA", "Cat": "low interval"}
{"Residue sequence": "GAACAGCAAUAUUACGGGGG", "Cat": "middle interval"}
{"Residue sequence": "CUAGAGCAAUAUUACGCGUU", "Cat": "low interval"}
{"Residue sequence": "CAGAAGCAAUAUUACGGUGC", "Cat": "low interval"}
{"Residue sequence": "CGACAGCAAUAUUACGUGAG", "Cat": "high interval"}
{"Residue sequence": "GCACAGCAAUAUUACGCUGU", "Cat": "low interval"}
{"Residue sequence": "UUCCAGCAAUAUUACGAGAC", "Cat": "middle interval"}
{"Residue sequence": "UGGGAGCAAUAUUACGAGAG", "Cat": "low interval"}
{"Residue sequence": "UCGCAGCAAUAUUACGUGAC", "Cat": "low interval"}
{"Residue sequence": "ACGAAGCAAUAUUACGGCCU", "Cat": "high interval"}
{"Residue sequence": "ACUAAGCAAUAUUACGCGCG", "Cat": "high interval"}
{"Residue sequence": "GGCUAGCAAUAUUACGCCUG", "Cat": "low interval"}
{"Residue sequence": "GGUCAGCAAUAUUACGAGUG", "Cat": "middle interval"}
{"Residue sequence": "CCAAAGCAAUAUUACGAUAC", "Cat": "middle interval"}
{"Residue sequence": "GCUUAGCAAUAUUACGGUAG", "Cat": "middle interval"}
{"Residue sequence": "UAACAGCAAUAUUACGAUAA", "Cat": "high interval"}
{"Residue sequence": "AGUCAGCAAUAUUACGACGG", "Cat": "high interval"}
{"Residue sequence": "CAUAAGCAAUAUUACGUCUU", "Cat": "low interval"}
{"Residue sequence": "GGUAAGCAAUAUUACGAAAG", "Cat": "low interval"}
{"Residue sequence": "CAGUAGCAAUAUUACGUUUG", "Cat": "high interval"}
{"Residue sequence": "CCACAGCAAUAUUACGAACG", "Cat": "high interval"}
{"Residue sequence": "CCCAAGCAAUAUUACGCACU", "Cat": "low interval"}
{"Residue sequence": "ACUCAGCAAUAUUACGAGAC", "Cat": "middle interval"}

* * *

experiment: self-splicing fitness, log relative to wild type (ln ratio); higher = more splicing; Tetrahymena group I intron in knt gene, E. coli kanamycin selection, DiMSum; sequences stand for … in CUCUCU…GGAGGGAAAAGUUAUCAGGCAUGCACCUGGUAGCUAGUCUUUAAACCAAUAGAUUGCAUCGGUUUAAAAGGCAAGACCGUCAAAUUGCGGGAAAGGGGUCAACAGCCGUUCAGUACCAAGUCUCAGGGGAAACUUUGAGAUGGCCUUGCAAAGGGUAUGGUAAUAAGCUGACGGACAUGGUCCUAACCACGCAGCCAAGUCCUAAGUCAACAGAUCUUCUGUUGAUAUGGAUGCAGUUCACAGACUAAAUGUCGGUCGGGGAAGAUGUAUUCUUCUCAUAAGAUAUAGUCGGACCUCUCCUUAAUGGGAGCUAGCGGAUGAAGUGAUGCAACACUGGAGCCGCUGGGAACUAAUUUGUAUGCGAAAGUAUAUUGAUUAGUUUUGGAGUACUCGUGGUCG; conditions: 37 °C
Some sequences, each annotated with its measured self-splicing fitness (ln).
Observable: self-splicing fitness (ln)

{"Residue sequence": "CGUAAGCAAUAUUACGUAAG", "Observable": "self-splicing fitness (ln)", "Test result": -0.165}
{"Residue sequence": "GGGGAGCAAUAUUACGGACU", "Observable": "self-splicing fitness (ln)", "Test result": -0.621}
{"Residue sequence": "GAUUAGCAAUAUUACGAACC", "Observable": "self-splicing fitness (ln)", "Test result": -0.802}
{"Residue sequence": "CUCUAGCAAUAUUACGAGGG", "Observable": "self-splicing fitness (ln)", "Test result": -1.45}
{"Residue sequence": "GGGCAGCAAUAUUACGUUUU", "Observable": "self-splicing fitness (ln)", "Test result": 0.221}
{"Residue sequence": "CUCCAGCAAUAUUACGCGCU", "Observable": "self-splicing fitness (ln)", "Test result": -2.2}
{"Residue sequence": "UAGCAGCAAUAUUACGGUUG", "Observable": "self-splicing fitness (ln)", "Test result": -0.442}
{"Residue sequence": "UUUAAGCAAUAUUACGCGUU", "Observable": "self-splicing fitness (ln)", "Test result": -2.51}
{"Residue sequence": "GCGUAGCAAUAUUACGCCUU", "Observable": "self-splicing fitness (ln)", "Test result": -1.3}
{"Residue sequence": "GCUCAGCAAUAUUACGUCAG", "Observable": "self-splicing fitness (ln)", "Test result": -3.23}
{"Residue sequence": "UUUCAGCAAUAUUACGAGGA", "Observable": "self-splicing fitness (ln)", "Test result": -0.121}
{"Residue sequence": "AUUGAGCAAUAUUACGGGUU", "Observable": "self-splicing fitness (ln)", "Test result": -3.31}
{"Residue sequence": "CCUAAGCAAUAUUACGUUAG", "Observable": "self-splicing fitness (ln)", "Test result": -2.03}
{"Residue sequence": "CCUGAGCAAUAUUACGUAGC", "Observable": "self-splicing fitness (ln)", "Test result": -1.77}
{"Residue sequence": "CUAAAGCAAUAUUACGGUUA", "Observable": "self-splicing fitness (ln)", "Test result": -2.72}
{"Residue sequence": "UGGAAGCAAUAUUACGCCCG", "Observable": "self-splicing fitness (ln)", "Test result": 0.191}
{"Residue sequence": "AAUCAGCAAUAUUACGCUUG", "Observable": "self-splicing fitness (ln)", "Test result": -0.33}
{"Residue sequence": "CCUAAGCAAUAUUACGAGCG", "Observable": "self-splicing fitness (ln)", "Test result": -0.11}
{"Residue sequence": "AGUGAGCAAUAUUACGACAU", "Observable": "self-splicing fitness (ln)", "Test result": -0.531}
{"Residue sequence": "GAGAAGCAAUAUUACGGGGC", "Observable": "self-splicing fitness (ln)", "Test result": -3.05}
{"Residue sequence": "UAGCAGCAAUAUUACGUCUU", "Observable": "self-splicing fitness (ln)", "Test result": -0.289}
{"Residue sequence": "AAAUAGCAAUAUUACGGCUG", "Observable": "self-splicing fitness (ln)", "Test result": -0.0574}
{"Residue sequence": "AGCCAGCAAUAUUACGAAAG", "Observable": "self-splicing fitness (ln)", "Test result": -3.22}
{"Residue sequence": "GGGUAGCAAUAUUACGACUU", "Observable": "self-splicing fitness (ln)", "Test result": 0.345}
{"Residue sequence": "CAGCAGCAAUAUUACGUGCG", "Observable": "self-splicing fitness (ln)", "Test result": -0.378}
{"Residue sequence": "GGCCAGCAAUAUUACGUGGU", "Observable": "self-splicing fitness (ln)", "Test result": -1.76}
{"Residue sequence": "GUUUAGCAAUAUUACGUUUU", "Observable": "self-splicing fitness (ln)", "Test result": -1.65}
{"Residue sequence": "GUACAGCAAUAUUACGACGC", "Observable": "self-splicing fitness (ln)", "Test result": -0.206}
{"Residue sequence": "GAUGAGCAAUAUUACGGCGG", "Observable": "self-splicing fitness (ln)", "Test result": -1.88}
{"Residue sequence": "GGCGAGCAAUAUUACGGUGC", "Observable": "self-splicing fitness (ln)", "Test result": -1.86}
{"Residue sequence": "UAAUAGCAAUAUUACGUAAG", "Observable": "self-splicing fitness (ln)", "Test result": -0.977}
{"Residue sequence": "UGUUAGCAAUAUUACGCAUG", "Observable": "self-splicing fitness (ln)", "Test result": -0.483}
{"Residue sequence": "UCGUAGCAAUAUUACGGGCA", "Observable": "self-splicing fitness (ln)", "Test result": -0.0787}
{"Residue sequence": "GCUGAGCAAUAUUACGCUUU", "Observable": "self-splicing fitness (ln)", "Test result": -2.33}
